- Target Or Test System: Human Factor XIIa (hFXIIa) (Homo sapiens, UniProt P00748)
- Sequence (P00748 373-615 limits assumed): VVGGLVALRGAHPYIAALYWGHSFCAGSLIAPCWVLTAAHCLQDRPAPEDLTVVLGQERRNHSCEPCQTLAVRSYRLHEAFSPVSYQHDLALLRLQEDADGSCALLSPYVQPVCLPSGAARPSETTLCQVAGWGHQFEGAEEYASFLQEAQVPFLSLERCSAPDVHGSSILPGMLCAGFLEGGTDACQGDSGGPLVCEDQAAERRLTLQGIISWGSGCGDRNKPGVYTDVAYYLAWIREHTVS
- Sequence (P00748 20-372 partner limits assumed): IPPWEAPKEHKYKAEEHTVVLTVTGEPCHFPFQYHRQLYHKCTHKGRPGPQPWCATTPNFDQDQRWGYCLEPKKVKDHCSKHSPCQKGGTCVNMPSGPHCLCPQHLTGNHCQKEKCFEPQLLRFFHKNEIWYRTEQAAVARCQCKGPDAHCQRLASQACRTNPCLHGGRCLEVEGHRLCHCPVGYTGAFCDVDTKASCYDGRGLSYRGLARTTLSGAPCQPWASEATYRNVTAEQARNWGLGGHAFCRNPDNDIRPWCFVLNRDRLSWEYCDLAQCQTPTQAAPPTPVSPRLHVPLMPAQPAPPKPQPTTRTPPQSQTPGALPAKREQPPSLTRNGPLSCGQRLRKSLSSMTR
Experimental Readout: IC50

INSERT INTO assay_data (chemical_string, measurement) VALUES
  ('CCN1CCc2cnc(N3CCc4c(C(=O)NCC5CC5)nn(-c5cccc(Cl)c5)c4C3=O)nc2C1', '0.3 to 1 µM'),
  ('CN1CCc2ccc(N3CCc4c(C(=O)NCC5CC5)nn(-c5cccc(Cl)n5)c4C3=O)cc2C1=O', '0.1 to 0.3 µM');

Task: Quick check: IC50 on Human Factor XIIa (hFXIIa) (Homo sapiens, UniProt P00748), item CCNC(=O)c1nn(-c2cccc(Cl)c2)c2c1CCN(c1cccc(N3CCOCC3=O)c1)C2=O ?
Result: 10 to 40 µM
